Target: histidine tagged recombinant Human Lymphocyte-Specific Protein Tyrosine Kinase (Lck) (Homo sapiens, UniProt P06239)
Construct: histidine tag
Sequence (P06239 whole entry): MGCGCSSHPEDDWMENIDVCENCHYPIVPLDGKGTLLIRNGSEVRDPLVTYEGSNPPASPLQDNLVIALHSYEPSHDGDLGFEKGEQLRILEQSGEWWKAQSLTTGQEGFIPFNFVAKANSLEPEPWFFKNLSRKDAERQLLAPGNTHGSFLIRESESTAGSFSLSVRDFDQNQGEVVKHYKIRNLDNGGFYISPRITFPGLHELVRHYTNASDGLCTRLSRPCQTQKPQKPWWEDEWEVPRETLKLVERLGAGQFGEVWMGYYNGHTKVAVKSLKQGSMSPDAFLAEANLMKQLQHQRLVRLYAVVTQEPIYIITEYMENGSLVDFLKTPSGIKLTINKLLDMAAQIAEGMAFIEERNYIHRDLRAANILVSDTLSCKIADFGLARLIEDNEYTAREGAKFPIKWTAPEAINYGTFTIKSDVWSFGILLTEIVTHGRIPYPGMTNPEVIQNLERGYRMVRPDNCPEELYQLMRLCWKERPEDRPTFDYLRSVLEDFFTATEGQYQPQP
Assay: Lck kinase inhibition assay (fluorescence polarization, KinEASE FP Fluorescein Green)
Type: biochemical
Conditions: 10 μM ATP, 250 μM substrate, 60 minutes, room temperature; Ki from IC50 by Cheng-Prusoff

compound: Nc1ncnc2c3c(n(-c4ccc(Oc5ccccc5)cc4)c12)COC3c1ccccc1 (centres unmarked)
Ki: < 1000 nM
//
compound: Nc1ncnc2c3c(n(-c4ccc(Cc5ccccc5)cc4)c12)CCC3
Ki: < 100 nM
//
compound: CC1OCc2c1c1ncnc(N)c1n2-c1ccc(Oc2cccc(OCc3ccc(C(F)(F)F)cc3)c2)cc1 (centres unmarked)
Ki: < 100 nM
//
compound: CC1OCc2c1c1ncnc(N)c1n2-c1ccc(Oc2ccccc2)c(F)c1 (centres unmarked)
Ki: < 100 nM
//
compound: CC1OCc2c1c1ncnc(N)c1n2-c1ccc(Oc2cccc(OCCOc3ccc(Cl)cc3)c2)cc1 (centres unmarked)
Ki: < 100 nM
//
compound: Nc1ncnc2c3c(n(-c4ccc(Oc5ccccc5)cc4)c12)CNC3
Ki: < 1000 nM
//
compound: CC1OCc2c1c1ncnc(N)c1n2-c1ccc(Oc2cccc(F)c2)cc1 (centres unmarked)
Ki: < 1000 nM
//
compound: CC1OCc2c1c1ncnc(N)c1n2-c1ccc(Oc2cccc(Cl)c2)cc1 (centres unmarked)
Ki: < 100 nM

From: patent US9624239B2
